experiment: Example 4: dose response of FKBP constructs 160-255, Ec50, Ec90 and fold change (raw and normalized to mCherry); format: cell-based; details: fold change during initial analysis
Listed molecules paired with reported FC (fold change)

molecule	FC (fold change)
FKBP-196 (protein, Description of sequence: Construct Name: FKBP-196; Mutation(s): Q72R Q84E A117W V85R DRD I136V) HCPIKSRKGDVLHMHYTGKLEDGTEFDSSLPRNQPFVFSLGTGERIKGWDQGLLGMCEGEKRKLVIPSELGYGERGWPPKIPGGATLVFEVELLKVER	34.7
FKBP-203: FKBP13 DRD-AcGFP construct of Table 10 (protein, Description of sequence: Construct Name: FKBP-203; Mutation(s): Q72R Q84E A117W V85R DRD M54A P75L) HCPIKSRKGDVLHAHYTGKLEDGTEFDSSLPRNQLFVFSLGTGERIKGWDQGLLGMCEGEKRKLVIPSELGYGERGWPPKIPGGATLVFEVELLKIER	66.0
FKBP-166 (protein, Description of sequence: Construct Name: FKBP-166; Mutation(s): Q72R S79W Q84E A117W DRD M54A V85R) HCPIKSRKGDVLHAHYTGKLEDGTEFDSSLPRNQPFVFWLGTGERIKGWDQGLLGMCEGEKRKLVIPSELGYGERGWPPKIPGGATLVFEVELLKIER	46.0
